system: Human immunodeficiency virus; test: In vitro antiviral activity against human immuno deficiency virus was determined; assay type: functional, organism-based; conditions: Human immunodeficiency virus 1
Binarize IC50 at 40 nM; below is Condition met, at or above is Condition not met.

compound=CC(C)(C)NC(=O)[C@@H]1CCCCN1C[C@@H](O)[C@H](Cc1ccccc1)NC(=O)[C@H](CC(N)=O)NC(=O)OCc1ccccc1 target_or_system="Human immunodeficiency virus" label_class="Condition not met"

Consider the record given below.
Input: Lab note: IC50 threshold 40 nM. Does this compound come in strictly under it? CC(C)(C)NC(=O)[C@@H]1C[C@@H]2CCCCC2CN1C[C@@H](O)[C@H](Cc1ccccc1)NC(=O)[C@H](CC(N)=O)NC(=O)c1ccc2ccccc2n1 (single isomer, unassigned)
Output: Condition met

The values you see were collected from ChEMBL document CHEMBL1128024.
